Target: T1, human VEGF-A (human, UniProt P15692-4 34-135, limits assumed)
T1 sequence (looked up): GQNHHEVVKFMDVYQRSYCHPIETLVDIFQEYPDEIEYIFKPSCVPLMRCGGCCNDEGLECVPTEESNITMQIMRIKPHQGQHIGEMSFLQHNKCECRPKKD
Assay: cell-based or functional assay
quantity: Cellular IC50 (nM)
Enter your answer as a number in nM; do not include the unit.

INSERT INTO results (binder, resultnumber) VALUES
  ('GCNIMLPFWGCGRDFECMQTCICQYYQSCG (designed binder) [VEGF_CKP9.54.90.25]', 1.26);

For GCNIMLPFWGCGRDFECMSDCICQYYQSCG (designed binder) [VEGF_CKP9.54.90.12] the binder record lists Cellular IC50 as 1.2

For GCNIMLPYWGCGRDFECFYECICQYYQSCG (designed binder) [VEGF_CKP9.54.90.62.F8Y] the binder record lists Cellular IC50 as 1.14

For CNIMLPYWGCGRDFECLAGCVCQYYQSC (designed binder) [VEGF_CKP9.54.90 F7Y Δ2G] the binder record lists Cellular IC50 as 3.01

For GCNIMLPFWGCGRDFECMEQCICQYYQSCG (designed binder) [VEGF_CKP9.54.90.67] the binder record lists Cellular IC50 as 1.1

For GCDVMQPYWGCGPDIDCLSNCICHWYNSCG (designed binder) [VEGF_CKP9.63.12.12] the binder record lists Cellular IC50 as 0.56

Source of measurements: patent US20230174596A1
